Origin of the recorded values: paper PMC3293351

EXPERIMENT DESCRIPTION: Urinary, fecal and biliary excretion after 20 mg/kg oral and intravenous dose
Type: in vivo, Sprague Dawley rats
TEST SETTINGS: Sprague Dawley, rat, urine, po, 20 mg/kg, oral 20 mg/kg, bile duct cannulated rats; read-out: Kel (elimination rate constant), urine (converted)
PROPERTY: k el (s⁻¹)
Answer with a number only, understood to be in s⁻¹.

Could you please provide reported k el for O=C1NC(C(=O)O)/C(=C\Cc2ccccc2)O1 (stereo not shown) ? Thanks!
1.94e-05

* * *

EXPERIMENT DESCRIPTION: Pharmacokinetics in serum after 20 mg/kg oral and intravenous doses
Type: in vivo, Sprague Dawley rats
TEST SETTINGS: Sprague Dawley, serum; rat, 20 mg/kg oral vs IV, based on AUC
PROPERTY: bioavailability (%)
Answer with a number only, understood to be in %.

Could you please provide reported bioavailability for O=C1NC(C(=O)O)/C(=C\Cc2ccccc2)O1 (stereo not shown) [CDRI-85/92] ? Thanks!
70.5

* * *

EXPERIMENT DESCRIPTION: Urinary, fecal and biliary excretion after 20 mg/kg oral and intravenous dose
Type: in vivo, Sprague Dawley rats
TEST SETTINGS: Sprague Dawley, rat, urine, iv, 20 mg/kg, IV 20 mg/kg, non-cannulated rats; read-out: Ke (excretion rate constant), urine (converted)
PROPERTY: k el (s⁻¹)
Answer with a number only, understood to be in s⁻¹.

Could you please provide reported k el for O=C1NC(C(=O)O)/C(=C\Cc2ccccc2)O1 (stereo not shown) [CDRI-85/92] ? Thanks!
2.5e-05

* * *

EXPERIMENT DESCRIPTION: Urinary, fecal and biliary excretion after 20 mg/kg oral and intravenous dose
Assay type: in vivo, Sprague Dawley rats
TEST SETTINGS: Sprague Dawley, rat, urine, iv, 20 mg/kg, IV 20 mg/kg, non-cannulated rats; read-out: Kel (elimination rate constant), urine (converted)
PROPERTY: k el (s⁻¹)
Answer with a number only, understood to be in s⁻¹.

Could you please provide reported k el for O=C1NC(C(=O)O)/C(=C\Cc2ccccc2)O1 (stereo not shown) ? Thanks!
2.78e-05

* * *

EXPERIMENT DESCRIPTION: Pharmacokinetics in serum after 20 mg/kg oral and intravenous doses
Assay type: in vivo, Sprague Dawley rats
TEST SETTINGS: Sprague Dawley, rat, serum, po, 20 mg/kg, rat serum, 20 mg/kg oral; read-out: Cmax
PROPERTY: Cmax (ng/mL)
Answer with a number only, understood to be in ng/mL.

Could you please provide reported Cmax for O=C1NC(C(=O)O)/C(=C\Cc2ccccc2)O1 (stereo not shown) [CDRI-85/92] ? Thanks!
469

* * *

EXPERIMENT DESCRIPTION: Urinary, fecal and biliary excretion after 20 mg/kg oral and intravenous dose
Format: in vivo, Sprague Dawley rats
TEST SETTINGS: Sprague Dawley, rat, urine, iv, 20 mg/kg, IV 20 mg/kg, bile duct cannulated rats; read-out: Kel (elimination rate constant), urine (converted)
Description: Urinary, fecal and biliary excretion of CDRI-85/92 was studied in rats (n=3 per group) after a single 20 mg/kg oral and intravenous dose. Following treatment with CDRI-85/92, urine and feces samples were collected during 24 h with 12 h intervals. Urine was measured and kept in parafilm sealed tubes at −60°C till analyses. […] The amount, cumulative amount and % of the administered dose excreted via urine, bile and feces were calculated.
PROPERTY: k el (s⁻¹)
Answer with a number only, understood to be in s⁻¹.

Could you please provide reported k el for O=C1NC(C(=O)O)/C(=C\Cc2ccccc2)O1 (stereo not shown) ? Thanks!
1.39e-05

* * *

EXPERIMENT DESCRIPTION: Pharmacokinetics in serum after 20 mg/kg oral and intravenous doses
Assay type: in vivo, Sprague Dawley rats
TEST SETTINGS: Sprague Dawley; rat serum, 20 mg/kg oral
PROPERTY: AUC(0-inf) (ng·h/mL)
Answer with a number only, understood to be in ng·h/mL.

Could you please provide reported AUC(0-inf) for O=C1NC(C(=O)O)/C(=C\Cc2ccccc2)O1 (stereo not shown) ? Thanks!
882

* * *

EXPERIMENT DESCRIPTION: Pharmacokinetics in serum after 20 mg/kg oral and intravenous doses
Assay type: in vivo, Sprague Dawley rats
TEST SETTINGS: Sprague Dawley, serum; rat, 20 mg/kg IV
Protocol: As the first step of experiment, an aqueous solution formulation of the compound was administered intravenously to conscious rats via the caudal vein at a dose of 20 mg/kg in a volume of approximately 1.0 ml/kg/rat. Before the experiment, the tail was cleaned with luke warm water and the caudal vein was dilated using xylene. […] Serum concentrations of the compound were determined by HPLC method as described by Srivastava & Gupta (2002) with minor modification. […]
PROPERTY: MRT (h)
Answer with a number only, understood to be in h.

Could you please provide reported MRT for O=C1NC(C(=O)O)/C(=C\Cc2ccccc2)O1 (stereo not shown) [CDRI-85/92] ? Thanks!
1.1

* * *

EXPERIMENT DESCRIPTION: Pharmacokinetics in serum after 20 mg/kg oral and intravenous doses
Assay type: in vivo, Sprague Dawley rats
TEST SETTINGS: Sprague Dawley, serum; rat, 20 mg/kg oral
PROPERTY: MRT (h)
Answer with a number only, understood to be in h.

Could you please provide reported MRT for O=C1NC(C(=O)O)/C(=C\Cc2ccccc2)O1 (stereo not shown) ? Thanks!
3.9

* * *

EXPERIMENT DESCRIPTION: Urinary, fecal and biliary excretion after 20 mg/kg oral and intravenous dose
Type: in vivo, Sprague Dawley rats
TEST SETTINGS: Sprague Dawley, rat, urine, po, 20 mg/kg, oral 20 mg/kg, non-cannulated rats; read-out: Kel (elimination rate constant), urine (converted)
PROPERTY: k el

Could you please provide reported k el for O=C1NC(C(=O)O)/C(=C\Cc2ccccc2)O1 (stereo not shown) ? Thanks!
1.94e-05 s⁻¹

* * *

EXPERIMENT DESCRIPTION: Pharmacokinetics in serum after 20 mg/kg oral and intravenous doses
Type: in vivo, Sprague Dawley rats
TEST SETTINGS: Sprague Dawley, serum; rat, 20 mg/kg IV
PROPERTY: clearance (mL/min)
Answer with a number only, understood to be in mL/min.

Could you please provide reported clearance for O=C1NC(C(=O)O)/C(=C\Cc2ccccc2)O1 (stereo not shown) [CDRI-85/92] ? Thanks!
18.3

* * *

EXPERIMENT DESCRIPTION: Urinary, fecal and biliary excretion after 20 mg/kg oral and intravenous dose
Type: in vivo, Sprague Dawley rats
TEST SETTINGS: Sprague Dawley, rat, feces, po, 20 mg/kg, oral 20 mg/kg, non-cannulated rats; read-out: Kel (elimination rate constant), feces (converted)
PROPERTY: k el (s⁻¹)
Answer with a number only, understood to be in s⁻¹.

Could you please provide reported k el for O=C1NC(C(=O)O)/C(=C\Cc2ccccc2)O1 (stereo not shown) [CDRI-85/92] ? Thanks!
1.67e-05

* * *

EXPERIMENT DESCRIPTION: Pharmacokinetics in serum after 20 mg/kg oral and intravenous doses
Assay type: in vivo, Sprague Dawley rats
TEST SETTINGS: Sprague Dawley, rat, serum, iv, 20 mg/kg, rat serum, 20 mg/kg IV; read-out: Elimination t1/2 (converted)
PROPERTY: half-life (h)
Answer with a number only, understood to be in h.

Could you please provide reported half-life for O=C1NC(C(=O)O)/C(=C\Cc2ccccc2)O1 (stereo not shown) [CDRI-85/92] ? Thanks!
2
